FYI, the data here is from paper PMC8458281.

- system.under.test: T1, CXCR4 E277A (human, UniProt P61073-1 1-352, E277A)
- T1 construct: human CXCR4, isoform 1 or b; source: 293T cells, transiently transfected (pcDNA3.1 CXCR4-IRES-eGFP), on cells
- procedure.details: flow cytometry on cells; 12G5 antibody competition on 293T cells transiently transfected with CXCR4 wt or mutants (IRES-eGFP vector), eGFP-positive cells gated; serially diluted peptide with a constant concentration of CXCR4 antibody clone 12G5, 2 h; bound antibody read; IC50 by nonlinear regression
- condition.summary: one partner purified
assay.metric: IC50 (µM)
Express the result in µM but write the number alone.

Which IC50 value is on record for LVRYTKKVPQVSTPTL (source: synthetic peptide (Fmoc solid-phase synthesis, HPLC-purified)) [EPI-X4 (Alb408-423)] ? 8.91
